Molecular target: Adenosine receptor A2a (Homo sapiens)
Sequence (P29274 whole entry): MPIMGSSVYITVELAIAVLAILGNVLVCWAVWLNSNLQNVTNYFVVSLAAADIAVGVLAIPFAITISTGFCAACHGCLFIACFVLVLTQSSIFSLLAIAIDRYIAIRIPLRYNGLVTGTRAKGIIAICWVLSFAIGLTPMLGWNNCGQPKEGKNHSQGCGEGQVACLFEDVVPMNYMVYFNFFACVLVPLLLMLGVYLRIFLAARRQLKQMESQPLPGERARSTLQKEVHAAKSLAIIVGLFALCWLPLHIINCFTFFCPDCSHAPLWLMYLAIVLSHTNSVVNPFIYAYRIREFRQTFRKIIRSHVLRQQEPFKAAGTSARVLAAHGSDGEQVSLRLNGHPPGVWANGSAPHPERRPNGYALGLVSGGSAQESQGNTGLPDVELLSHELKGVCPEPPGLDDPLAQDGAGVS
Assay: Displacement of [3H]ZM-241385 from recombinant human adenosine A2A receptor expressed in HeLa cells at 0.1 uM
Could you label it t if measured inhibition is 40% or higher, and f otherwise?

Take a look at these entries with their results.
COMPOUND	DISCRETE LABEL
CCCn1c(=O)c2nc(-c3ccc(OCC(N)=O)cc3)[nH]c2n(CCC)c1=O	f
Cn1c(=O)c2[nH]c(-c3ccc(OCC(=O)NCc4ccc(Cl)cc4)cc3)cc2n(C)c1=O	t
Cn1c(=O)c2[nH]c(-c3ccc(OCC(=O)NCc4ccncc4)cc3)cc2n(C)c1=O	f
CCCn1c(=O)c2[nH]c(-c3ccc(OC(C)(C)C(=O)Nc4ccc(F)cc4)cc3)cc2n(CCC)c1=O	f
CCOC(=O)COc1ccc(-c2cc3c([nH]2)c(=O)n(C)c(=O)n3C)cc1OC	f

Query: Check the entry "CCOC(=O)COc1ccc(-c2cc3c([nH]2)c(=O)n(C)c(=O)n3C)c(OC)c1" : does inhibition equal or exceed 40%?
Reply: f

====

Target: Adenosine receptor A2b (Homo sapiens)
Assay: Displacement of [3H]DPCPX from recombinant human adenosine A2B receptor expressed in HEK293 cells at 0.1 uM
Type: cell-based
Could you label it rule met if measured inhibition is 80% or higher, and rule not met otherwise?

COMPOUND	DISCRETE LABEL
COc1cc(OCC(=O)NCc2ccc(Cl)cc2)ccc1-c1cc2c([nH]1)c(=O)n(C)c(=O)n2C	rule not met
CC(Oc1ccc(-c2cc3c([nH]2)c(=O)n(C)c(=O)n3C)cc1)C(=O)Nc1ccccc1 (configuration not stated)	rule met
COc1cc(OCC(=O)Nc2ccc(F)cc2)ccc1-c1cc2c([nH]1)c(=O)n(C)c(=O)n2C	rule not met

Now look at this one.
Query: Check the entry "O=C(COc1ccc(-c2cc3c([nH]2)c(=O)n(CC(F)(F)F)c(=O)n3CC(F)(F)F)cc1)Nc1ccc(F)cc1" : does inhibition equal or exceed 80%?
Reply: rule not met

====

Target: Adenosine receptor A2b (Homo sapiens)
Assay: Displacement of [3H]DPCPX from recombinant human adenosine A2B receptor expressed in HEK293 cells at 0.1 uM
Assay type: cell-based
PROPERTY: inhibition

COMPOUND	PROPERTY	VALUE REPORTED
CCCn1c(=O)c2[nH]c(-c3ccc(OCC(=O)Nc4ccccc4)cc3)cc2n(C)c1=O	inhibition	91%
CCCn1c(=O)c2[nH]c(-c3ccc(OCC(=O)Nc4ccc(OC)cc4)cc3)c(Cl)c2n(CCC)c1=O	inhibition	70%
CCCn1c(=O)c2[nH]c(-c3ccc(OC(CC)C(=O)Nc4ccc(F)cc4)cc3)cc2n(CCC)c1=O (stereo not drawn)	inhibition	100%
CCCn1c(=O)c2[nH]c(-c3ccc(OCC(=O)Nc4ccc(C(C)=O)cc4)cc3)c(Cl)c2n(CCC)c1=O	inhibition	43%
CCOC(=O)c1ccc(NC(=O)COc2ccc(-c3cc4c([nH]3)c(=O)n(C)c(=O)n4C)cc2OC)cc1	inhibition	47%

Query: Need inhibition of "CCOC(=O)COc1ccc(-c2cc3c([nH]2)c(=O)n(C)c(=O)n3C)c(OC)c1" , thanks.
Reply: 10%

Query: Likewise for "COCCCn1c(=O)c2[nH]c(-c3ccc(OCC(=O)Nc4ccc(Br)cc4)cc3)cc2n(CCCOC)c1=O" ?
Reply: 85%

Query: Likewise for "CCCn1c(=O)c2[nH]c(-c3ccc(OCC(=O)Nc4ccc([N+](C)(C)C)cc4)cc3)cc2n(CCC)c1=O" ?
Reply: 52%
